Origin of the recorded values: patent US9079866B2

pKi reference
Molecular target: human FLAP (Homo sapiens (Human), UniProt P20292)
Sequence (P20292 whole entry): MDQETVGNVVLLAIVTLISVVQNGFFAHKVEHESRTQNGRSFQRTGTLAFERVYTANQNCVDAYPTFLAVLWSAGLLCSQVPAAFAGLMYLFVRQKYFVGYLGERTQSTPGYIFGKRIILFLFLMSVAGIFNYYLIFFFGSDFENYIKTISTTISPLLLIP
Assay: FLAP binding assay (HTRF format)
Conditions: wild type FLAP, HTRF format
pKi: −log10 of the molar value.

Solved cases (5 shown):
QUERY_SMILES: CC(C)(C)C(=O)Nc1ncccc1-c1ccc(-c2cnc(N)cn2)c(F)c1
TARGET_ENTITY: human FLAP (Homo sapiens (Human), UniProt P20292)
pKi: < 5.00
//
QUERY_SMILES: NC(=O)Nc1ccccc1-c1ccc(-c2cnc(N)cn2)c(F)c1
TARGET_ENTITY: human FLAP (Homo sapiens (Human), UniProt P20292)
pKi: < 5.00
//
QUERY_SMILES: Nc1cnc(-c2ccc(-c3ccccc3S(=O)(=O)N3CCOCC3)cc2)cn1
TARGET_ENTITY: human FLAP (Homo sapiens (Human), UniProt P20292)
pKi: 6.94
//
QUERY_SMILES: CC(C)(C)NS(=O)(=O)c1ccccc1-c1ccc(-c2ccc3[nH]c(=O)[nH]c(=O)c3c2)c(F)c1
TARGET_ENTITY: human FLAP (Homo sapiens (Human), UniProt P20292)
pKi: < 5.00
//
QUERY_SMILES: Nc1cnc(-c2ccc(-c3cccnc3N3CCCC3)cc2F)cn1
TARGET_ENTITY: human FLAP (Homo sapiens (Human), UniProt P20292)
pKi: ~5.90

pKi recorded for this molecule, CC(C)(C)NS(=O)(=O)c1ccccc1-c1ccc(-c2ccc3c(c2)CC(=O)N3)c(F)c1 , is ~5.60

The recorded pKi for entry Nc1cnc(-c2ccc(-c3ccccc3C(=O)N3CCS(=O)(=O)CC3)cc2F)cn1 equals 6.83
